- Assay Comment: Biodistribution in BALB/c mice
- Format: in vivo
- Condition Info: female, BALB/c, mouse, lung, iv, 30 MBq, total radioactivity; 10 min p.i.; read-out: uptake in lung
Where a SMILES comes first, the peptide text is derived from it. [ ]: non-standard residue; d: D form. The star is where a group is joined. DOTA = O=C(O)CN1CCN(CC(=O)O)CCN(CC(=O)*)CCN(CC(=O)O)CC1; 1Nal = N[C@@H](Cc1cccc2ccccc12)C(=O)O; NMeNle = CCCC[C@H](NC)C(=O)O
Assay Metric: tissue uptake at 10 min (%ID/g)

• CCCC[C@@H](C(=O)N[C@@H](CC(=O)O)C(=O)N[C@@H](Cc1cccc2ccccc12)C(N)=O)N(C)C(=O)[C@H](Cc1c[nH]c2ccccc12)NC(=O)CNC(=O)[C@H](Cc1ccc(O)cc1)NC(=O)[C@@H]1CCCN1C(=O)[C@@H](CCC(=O)O)NC(=O)CN1CCN(CC(=O)O)CCN(CC(=O)O)CCN(CC(=O)O)CC1 [[^177Lu]Lu-1, metal not drawn] ({DOTA}-[dE]PYGW[NMeNle]D[1Nal]-NH2) = 17.4

The values you see were collected from paper PMC7583830.
